Parameter half-life: see the listing below.
- experiment_notes: Half life of the compound in heparin-stabilized human plasma by HPLC analysis
- Assay type: ADME, cell-free

// solved cases for half-life follow
{"compound": "CCCCCCCCCCCCCCCCCCP(=O)(OCCCC)OP(=O)(O)OP(=O)(O)CO[C@H](C)Cn1cnc2c(N)ncnc21 (stereo partly drawn)", "measure_name": "half-life", "result": "> 8 h"}
{"compound": "CCCCCCCCCCCCCCCCCCOP(=O)(OCCCC)OP(=O)(O)OP(=O)(O)CO[C@H](C)Cn1cnc2c(N)ncnc21 (stereo partly drawn)", "measure_name": "half-life", "result": "> 8 h"}

Let us examine a further case.
Value of half-life reported for the compound CCCCCCCCCCCCCCCCCCP(=O)(OCCCC)OP(=O)(O)CO[C@H](C)Cn1cnc2c(N)ncnc21 (stereo partly drawn) is > 5 h
